Data provenance: patent US6696409

target: Y2-like receptors in anaesthetised rats (rat); experiment: cell-based or functional assay
So basically: is EC50 of the change in pulse interval (PI %), vagal stimulation in anaesthetised rats under 1 nmol? Then Satisfied. Not under? Then Not satisfied.

## Input Would you kindly verify if EC50 of the change in pulse interval (PI %), vagal stimulation in anaesthetised rats of Ac-LRHYLALLTRQRY-NH2 [Ac[L28,A29,L31]NPY24-36] is strictly less than 1 nmol?
## Output Not satisfied

## Input Would you kindly verify if EC50 of the change in pulse interval (PI %), vagal stimulation in anaesthetised rats of Ac-LAHYLNLLTRQRY-NH2 [Ac[A25,L28,L31]NPY24-36] is strictly less than 1 nmol?
## Output Not satisfied

## Input Would you kindly verify if EC50 of the change in pulse interval (PI %), vagal stimulation in anaesthetised rats of Ac-LRAYLNLLTRQRY-NH2 [Ac[A26,L28,L31]NPY24-36] is strictly less than 1 nmol?
## Output Not satisfied

## Input Would you kindly verify if EC50 of the change in pulse interval (PI %), vagal stimulation in anaesthetised rats of Ac-LRHYLNLATRQRY-NH2 [Ac[L28,A31]NPY24-36] is strictly less than 1 nmol?
## Output Satisfied

## Input Would you kindly verify if EC50 of the change in pulse interval (PI %), vagal stimulation in anaesthetised rats of Ac-LRHYLNALTRQRY-NH2 [Ac[L28,A30,L31]NPY24-36] is strictly less than 1 nmol?
## Output Satisfied

## Input Would you kindly verify if EC50 of the change in pulse interval (PI %), vagal stimulation in anaesthetised rats of Ac-ARAALNAATRQRY-NH2 [Ac[A24,26,27,30,31,L28]NPY24-36] is strictly less than 1 nmol?
## Output Satisfied
